- System: HS 578T breast
- experimentalProtocol: NCI tumour cell line growth inhibition, 48 h
Exercise: state measured TGI for each of the compounds provided.

Entry C[C@]12O[C@@]3(C)O[C@@]3(C)[C@]3(C)O[C@]3(C)[C@@]1(C)O2 , TGI reported as > 100 µM

Entry O=C1C2CCCCC2C(=O)N1n1c(Cc2ccccc2)n[nH]c1=O (stereo unspecified) , TGI reported as > 100 µM

Entry CC(NC(=O)c1ccc(OP(=O)(OCc2ccc([N+](=O)[O-])o2)N(C)CCCCCl)cc1)c1ccc(OCC2CCCCC2)c(C(N)=O)c1 (stereo unspecified) , TGI reported as > 41.6 µM

Entry CCCCCC/C=C\CCCCCCCCCc1cccc(OC)c1O , TGI reported as > 100 µM

Entry COc1ncc(-c2ccc3ncnc(Nc4cccc(Cl)c4)c3c2)cc1NS(C)(=O)=O , TGI reported as 9.52 µM

Entry CCCCc1n(Cc2ccc3ccccc3n2)cc[n+]1Cc1ccc2ccccc2c1 , TGI reported as 4.07 µM

Entry Clc1ccc(C2=Cc3nc2c(-c2ccccc2)c2ccc([nH]2)c(-c2ccccc2)c2nc(c(-c4ccccc4)c4ccc([nH]4)c3-c3ccccc3)C=C2)cc1 , TGI reported as > 62.5 µM

Entry COC(=O)C(Br)(C(=O)OC)C(Br)C(Br)C(Br)c1ccccc1 (stereo unspecified) , TGI reported as 15 µM

Entry O=C1CCCc2cc3c(cc21)CC1(C3)Cc2cc3c(cc2C1)C(=O)CCC3 , TGI reported as > 100 µM

Entry Cn1c(=O)c2[nH]c(CCS)nc2n(C)c1=O , TGI reported as 99.7 µM

Entry COc1ccc(-n2nc(C(=O)c3ccccc3)c3nn4c(=O)cc(-c5ccccc5)nc4nc32)cc1 , TGI reported as > 100 µM

Entry CN(C)c1ccc(C2=C([O-])c3cc(-[n+]4ccccc4)ccc3C2=O)cc1 , TGI reported as > 100 µM

Entry O=C(O)C(C(F)(F)F)C(F)(F)F (tested in a mixture with another compound) , TGI reported as > 100 µM

Entry CC1(C)CC(C(=O)OCCCCCCCCCCC[P+](c2ccccc2)(c2ccccc2)c2ccccc2)C(C)(C)N1O (stereo unspecified) , TGI reported as 1.84 µM

Entry CSc1ccc(NC(=O)CCl)cc1 , TGI reported as > 10 µM

Entry CCOC(=O)c1cccc(N=Nc2ncc(/C=C/C(=O)OC)[nH]2)c1 , TGI reported as > 100 µM

Entry COC(=O)C1=C(C(=O)OC)N(c2ccncc2)C(c2ccco2)=CC1c1ccccc1[N+](=O)[O-] (stereo unspecified) , TGI reported as 27.8 µM

Entry Cn1c(=S)c2[nH]c(SCc3cccnc3)nc2n(C)c1=O , TGI reported as > 100 µM

Entry O=C1NC(=O)C23C(=O)NC(=O)C12C1C=CC3CC1 (stereo unspecified) , TGI reported as > 10 µM

Entry C#CCn1c2c(c3ccccc3c1=O)C(=O)c1ccccc1-2 , TGI reported as 34.8 µM

Entry C#C[C@]1(O)[C@@H](CO)O[C@@H](n2ccc(=O)[nH]c2=O)[C@@H]1O , TGI reported as > 23.5 µM

----------
- Test system: SK-MEL-28 melanoma
- experimentalProtocol: NCI tumour cell line growth inhibition, 48 h
measuredQuantity: TGI

Form field, TGI with SK-MEL-28 melanoma, item O=C(C[n+]1ccn(CC(OCc2ccc(Cl)cc2Cl)c2ccc(Cl)cc2Cl)c1)c1ccc(F)cc1 (stereo not drawn) : 3.12 µM

Form field, TGI with SK-MEL-28 melanoma, item Nc1ccccc1-n1c2c(c3ccccc3c1=O)C(=O)c1ccccc1-2 : > 100 µM

Form field, TGI with SK-MEL-28 melanoma, item O=C(NN1CCCCC1)c1cc2cc(CCl)ccc2oc1=O : > 100 µM
